# Tested on: Streptococcus sp. 'group A'
# assayExplanation: growth inhibition of control SK(-) GAS strain, dose response, counter-screen for streptokinase expression inhibitor project, luminescence, kanamycin, BacTiterGlo, confirmation (AID 1900)
# Type: functional, organism-based
Calls of active or inactive are those of the source.
Please go through the items and note down their EC50.

// worked examples, EC50 included
CC(C)Cn1c(=O)c(C(=O)Nc2ccncc2)c(O)c2ccccc21: 5.54 µM (active)
CCOC(=O)C1=NN(C(=O)c2ccc(C)cc2)C(O)(c2ccc(Cl)cc2)C1 (stereo not given): 2.15 µM (active)
Cc1[nH]n(-c2ccccc2)c(=O)c1/C=N\NC(=O)C1COc2ccccc2O1 (stereo not given): 1.36 µM (active)
CC(C)Nc1nc(NC(C)C)nc(N(C)N)n1: 32.9 µM (active)
O=C(N/N=C/c1cc(Br)ccc1O)c1ccncc1: 3 µM (active)
CSc1cccc(-c2nnc(NC(=O)c3cccc(N4C(=O)CCC4=O)c3)o2)c1: 4.88 µM (active)
COc1ccc(C(=O)NC(=S)N(Cc2ccccc2)Cc2ccccc2)cc1: 0.883 µM (active)
CCOC(=O)c1ccc(NC(=O)c2[nH]cnc2C(=O)N[C@@H](CCCCNC(=O)OC(C)(C)C)C(=O)OC(C)(C)C)cc1: 6.84 µM (active)

Each of the following entries comes with a recorded value; kindly state EC50 for each.
1. Cc1ccccc1C(=O)Nc1scc(-c2ccc(Br)cc2)c1C(=O)O
2. COCCCn1c(=O)/c(=C\c2ccccc2OC(C)C)s/c1=C(/C#N)C(=O)Nc1ccc(C(=O)O)cc1

1. 3.46 µM (active)
2. 1.44 µM (active)

====

Please go through the items and note down their AC50.
# subjectOfTest: ORF 73 (Human herpesvirus 8, UniProt O40947)
# Sequence (O40947 whole entry): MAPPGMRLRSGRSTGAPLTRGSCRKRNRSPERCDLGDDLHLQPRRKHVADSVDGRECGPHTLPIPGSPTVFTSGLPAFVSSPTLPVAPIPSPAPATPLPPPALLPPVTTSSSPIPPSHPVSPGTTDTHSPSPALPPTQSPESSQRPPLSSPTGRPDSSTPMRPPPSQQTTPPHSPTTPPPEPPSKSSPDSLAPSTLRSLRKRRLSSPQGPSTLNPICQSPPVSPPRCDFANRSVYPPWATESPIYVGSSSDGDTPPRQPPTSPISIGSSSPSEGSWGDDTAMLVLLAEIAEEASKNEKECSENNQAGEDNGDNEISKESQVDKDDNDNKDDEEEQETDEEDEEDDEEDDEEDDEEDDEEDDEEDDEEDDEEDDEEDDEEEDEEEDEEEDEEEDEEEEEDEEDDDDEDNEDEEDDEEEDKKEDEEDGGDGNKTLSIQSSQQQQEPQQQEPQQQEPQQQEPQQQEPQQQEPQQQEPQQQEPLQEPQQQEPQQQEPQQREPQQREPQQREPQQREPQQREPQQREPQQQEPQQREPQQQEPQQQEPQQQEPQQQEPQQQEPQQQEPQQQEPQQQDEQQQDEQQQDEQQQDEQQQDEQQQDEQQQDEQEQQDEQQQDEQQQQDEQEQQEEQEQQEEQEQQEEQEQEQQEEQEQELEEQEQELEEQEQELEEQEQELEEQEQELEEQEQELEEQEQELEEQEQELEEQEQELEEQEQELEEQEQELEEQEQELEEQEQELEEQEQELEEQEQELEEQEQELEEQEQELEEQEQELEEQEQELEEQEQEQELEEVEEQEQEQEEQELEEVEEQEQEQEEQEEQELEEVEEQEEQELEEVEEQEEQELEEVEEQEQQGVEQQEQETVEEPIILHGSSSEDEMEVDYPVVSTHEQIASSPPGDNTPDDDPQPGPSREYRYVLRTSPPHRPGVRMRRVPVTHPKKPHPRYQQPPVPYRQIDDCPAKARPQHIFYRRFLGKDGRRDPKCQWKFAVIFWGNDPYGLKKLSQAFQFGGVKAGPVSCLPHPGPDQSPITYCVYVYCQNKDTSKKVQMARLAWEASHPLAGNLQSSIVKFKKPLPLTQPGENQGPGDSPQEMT
# assayExplanation: inhibitors of C-LANA binding to LBS DNA, dose response, biochemical, fluorescence polarization, cherry-picked samples (AID 504725);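 further: fluorescence polarization of a labeled DNA duplex reporting LANA DNA binding; potency is for inhibitors that block LANA binding to the DNA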
# Design: species or system Human gammaherpesvirus 8
The source made the active and inactive calls.

CCn1c(SCc2nc(O)c3c(C)c(C(=O)O)sc3n2)nc2ccccc21: 32.2 µM (active)
O=C(O)CCNc1ccc(NCCC(=O)O)c2c1C(=O)c1ccccc1C2=O: 22.8 µM (active)
Cc1cc(/C=C2\C(=O)NC(=O)N(Cc3ccccc3)C2=O)c(C)n1-c1ccc(Cl)c(C(=O)O)c1: 76.2 µM (active)

Now consider the entry below.
Given O=C(O)c1ccc2c(c1)C(=O)/C(=C\c1ccco1)C2=O , state its recorded AC50.
133 µM (active)

====

# subjectOfTest: Calpain-2 catalytic subunit (Sus scrofa)
# Sequence (P43367 whole entry): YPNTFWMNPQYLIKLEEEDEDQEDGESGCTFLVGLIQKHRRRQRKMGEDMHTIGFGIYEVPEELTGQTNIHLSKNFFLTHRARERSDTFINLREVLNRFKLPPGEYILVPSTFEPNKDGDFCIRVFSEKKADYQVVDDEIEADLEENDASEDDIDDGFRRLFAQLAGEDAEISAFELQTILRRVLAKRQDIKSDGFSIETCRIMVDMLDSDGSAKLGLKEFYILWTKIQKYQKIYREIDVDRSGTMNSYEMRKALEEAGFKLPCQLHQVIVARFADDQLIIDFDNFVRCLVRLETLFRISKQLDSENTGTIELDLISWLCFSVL
# assayExplanation: pig calpain II inhibitor potency, dose response, biochemical, fluorogenic peptide substrate (AID 1420)
# Assay type: functional
Please go through the items and note down their IC50.

Each of the following entries comes with a recorded value; kindly state IC50 for each.
1. Cc1oc2c(c1C(=O)Nc1cccc3ccccc13)CCCC2
2. CC(=O)Nc1cc(C(=O)N2CCN(C)CC2)ccc1S(=O)(=O)c1ccc(C)cc1
3. CCN1CCN(c2cc(C)c3cc(NC(S)=NCc4cccs4)ccc3n2)CC1
4. CCC(C(=O)NC1CCCC1)N(Cc1ccco1)C(=O)Cn1nnc(-c2ccc(C)cc2)n1 (stereo not given)
5. COc1ccc(Cn2nc(-c3ccccc3)c(N3CCCCC3)cc2=O)cc1
6. CC(C)(C)OC(=O)NCCCCCNC(=O)c1[nH]cnc1C(=O)N[C@@H](CCCCNC(=O)OC(C)(C)C)C(=O)OC(C)(C)C
7. COCCCn1c(=O)/c(=C\c2ccccc2OC(C)C)s/c1=C(/C#N)C(=O)Nc1ccc(C(=O)O)cc1
8. O=C1c2ccccc2C(=O)N1CCc1csc(-c2cccc(Cl)c2)n1

> 50 µM (not active)
0.796 µM (not active)
10 µM (not active)
16.3 µM (not active)
10.6 µM (not active)
10.7 µM (not active)
3.61 µM (not active)
3.44 µM (not active)

Each of the following entries comes with a recorded value; kindly state IC50 for each.
1. CCCN(CCC)S(=O)(=O)c1ccc(NC(=O)COc2ccccc2)cc1
2. CCOC(=O)CCNC(=O)Nc1ccc2nc(C)n(Cc3cccc(Cl)c3)c(=O)c2c1

1: 3.3 µM (not active); 2: 6.83 µM (not active)

====

# subjectOfTest: Cytochrome P450 3A4 (Homo sapiens)
# Sequence (P08684 whole entry): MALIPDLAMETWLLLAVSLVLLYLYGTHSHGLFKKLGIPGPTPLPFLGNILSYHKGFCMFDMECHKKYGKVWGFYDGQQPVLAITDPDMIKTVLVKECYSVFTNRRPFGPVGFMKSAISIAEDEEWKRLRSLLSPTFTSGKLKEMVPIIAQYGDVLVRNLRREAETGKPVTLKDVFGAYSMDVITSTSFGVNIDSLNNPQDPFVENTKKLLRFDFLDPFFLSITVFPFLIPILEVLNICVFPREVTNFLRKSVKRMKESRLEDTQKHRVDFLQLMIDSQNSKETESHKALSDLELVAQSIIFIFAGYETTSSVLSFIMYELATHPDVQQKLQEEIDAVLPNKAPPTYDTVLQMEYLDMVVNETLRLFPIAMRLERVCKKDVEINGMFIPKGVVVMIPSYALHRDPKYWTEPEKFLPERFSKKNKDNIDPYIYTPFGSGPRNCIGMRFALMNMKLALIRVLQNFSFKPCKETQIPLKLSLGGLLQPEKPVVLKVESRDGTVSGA
# reportedConditions: Potency
measuredProperty: AC50

// worked examples, AC50 included
Nc1cc([N+](=O)[O-])ccc1C(=O)O: 10 µM (inconclusive)
Cc1cc(=O)oc2cc(O)c(O)cc12 [4-METHYLESCULETIN]: 15.8 µM (inconclusive)
CC1Cc2c(COc3ccccc3)nc3c(c2CO1)CN(CCOc1ccccc1)CC3 (stereo unspecified): 3.98 µM (inconclusive)
CC1=C(/C=C/C(C)=C/C=C/C(C)=C/CO)C(C)(C)CCC1 [RETINOL]: 15.8 µM (inconclusive)
COCCNC(=O)[C@@]1(Cc2ccccc2)C=C[C@@H](C)N1C(C)=O: 20 µM (inconclusive)

Now consider the entry below.
Given Nc1cc(Cl)cc(Cl)c1 , state its recorded AC50.
31.6 µM (inconclusive)

====

# assayExplanation: C. albicans growth with fluconazole, confirmation, fluorescence, retest (AID 2467)
# Type: functional, cell-based
Active and inactive are the calls of the source.
Please go through the items and note down their EC50.

Each of the following entries comes with a recorded value; kindly state EC50 for each.
1. Cc1cccc(N2CCN(c3nc(C)cc(C)c3C#N)CC2C)c1 (stereo not given)
2. Cc1c(Cc2ccccc2)c(=O)oc2c(O)c(O)ccc12
3. Cc1ncc(CO)c(/C=N/NC(=S)Nc2ccc(Cl)c(Cl)c2)c1O
4. O=c1c(Cl)c(NCCCO)cnn1-c1nc2ccccc2[nH]1
5. O=C(/C=C/c1ccccc1)Nn1c(-c2cccs2)nc2ccccc2c1=O

1: > 38 µM (not active); 2: 2.73 µM (active); 3: > 38 µM (not active); 4: 3.47 µM (active); 5: 0.102 µM (active)

Each of the following entries comes with a recorded value; kindly state EC50 for each.
1. COc1ccccc1OCC(=O)N/N=C/C=C/c1ccc([N+](=O)[O-])o1
2. O=C(NCc1ccc(F)cc1)C(c1ccccc1)N(CC1CCCO1)C(=O)Cn1nnc2ccccc21 (stereo not given)
3. CCN(CC)c1ccc(/C=N/NC(=O)c2cccc(S(=O)(=O)N3CCOCC3)c2)c(O)c1
4. CNc1cc(Cl)c2nonc2c1[N+](=O)[O-]

1: 0.654 µM (active); 2: 1.07 µM (active); 3: 0.769 µM (active); 4: 0.752 µM (active)

Given CC1CCN(C(=O)Cn2c3ccccc3c3nc4n(c(=O)c32)CCS4)CC1 , state its recorded EC50.
0.979 µM (active)

====

# subjectOfTest: Prothrombin (Bos taurus, UniProt P00735)
# assayExplanation: thrombin inhibition, dose response, biochemical, fluorescence polarization, uHTS hits (AID 602369)
# Format: functional
Active and inactive are the calls of the source.
Please state which outcome applies, choosing from 1 (yes) for active, 0 (no) for inactive

Some solved entries appear below for comparison.
CN1C(=O)/C(=C/C=C2/CCCN2C)N(C)C1=S: 1 (yes)
COc1ccc2c3c([nH]c2c1)C(C)NCC3 (centres undefined): 1 (yes)
COc1ccccc1NC(=O)CSc1ccc(-c2ccc(-n3cccn3)cc2)nn1: 0 (no)

Please state the recorded outcome for this compound: O=[N+]([O-])c1ccc(N/N=C\c2cccn2-c2ccccc2)nc1
1 (yes)

====

# subjectOfTest: Nonstructural protein 1 (Influenza A virus)
# Sequence (Q194T2 whole entry): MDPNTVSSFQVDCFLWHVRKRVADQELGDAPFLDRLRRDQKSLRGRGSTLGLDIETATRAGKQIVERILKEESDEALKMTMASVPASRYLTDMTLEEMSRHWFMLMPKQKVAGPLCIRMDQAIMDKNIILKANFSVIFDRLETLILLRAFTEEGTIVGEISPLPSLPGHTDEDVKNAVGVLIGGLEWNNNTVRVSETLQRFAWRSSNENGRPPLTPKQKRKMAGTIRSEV
# Format: functional, Influenza A virus (A/California/07/2009(H1N1))
Active and inactive are the calls of the source.
Please go through the items and note down their IC50.

// worked examples, IC50 included
S=C(NN=Cc1ccccn1)N(Cc1ccccn1)Cc1ccccn1: 1.59 µM (active)
Nn1cnnc1N/N=C/c1cc(Br)cc(Br)c1O: 10.7 µM (active)
S=C(NCc1ccccn1)NN=Cc1ccccn1: 3.89 µM (active)
CCOc1cccc(/C=N/NC(=S)NCCN2CCOCC2)c1O: 16.5 µM (active)
CCc1nnc(N/N=C/c2cc(Br)c(O)cc2O)n1N: 6.41 µM (active)
COc1ccc(C(CCNCc2ccc(N(C)C)cc2)C(C)C)cc1 (stereo unspecified): 39.1 µM (active)

Each of the following entries comes with a recorded value; kindly state IC50 for each.
1. Cc1c(N=NC2=C(O)CC(C)(C)CC2=O)c(=O)n(-c2ccccc2)n1C
2. O=C(N/N=C/c1cc(Br)ccc1O)c1ccncc1
3. Nc1cccc2c1C(=O)c1ccc(Cl)cc1C2=O
4. c1ccc(-c2ccc(SCc3cccnc3)nn2)nc1
5. COc1ccc(N2CCN(CCNC(=O)Nc3ccc([N+](=O)[O-])cc3OC)CC2)cc1

3.63 µM (active)
5.51 µM (active)
24.6 µM (active)
5.07 µM (active)
> 100 µM (active)
